tested on: Saccharomyces cerevisiae; assay: Inhibition of NES binding to yeast CRM1-T539 mutant in absence of RanGTP at 20 uM by pull down assay
Calls of active or inactive are those of the source. The calls are words filed in the database; no cut-off is given here.
Answer with one of the outcomes given here: active, inactive

input: Hi, do you know how O=C(/C=C\n1cnc(-c2cc(C(F)(F)F)cc(C(F)(F)F)c2)n1)NNc1cnccn1 came out in this test?
output: inactive

input: Hi, do you know how [O-][S+](/C=C/CBr)c1cc(C(F)(F)F)cc(C(F)(F)F)c1 (centres undefined) came out in this test?
output: active

input: Hi, do you know how FC(F)(F)c1cc(S/C=C/CBr)cc(C(F)(F)F)c1 came out in this test?
output: active

input: Hi, do you know how CC(C)CCNC/C=C/[S+]([O-])c1cc(C(F)(F)F)cc(C(F)(F)F)c1 (centres undefined) came out in this test?
output: active

---

system: HeLa; assay: Anti-cancer activity against human HeLa cells transfected with hCRM1-C528T/K568A dual mutant assessed as measuring cell survival at 10 uM for 72 hrs replaced with compound containing fresh culture medium every 12 hrs by Sulforhodamine B assay; format: functional, cell-based
OBSERVED PROPERTY: IC50 (nM)
Numbers only, in nM.

Item: CC(C)CCNC/C=C/[S+]([O-])c1cc(C(F)(F)F)cc(C(F)(F)F)c1 (stereo unspecified) | IC50: 2000
